target: Integrin alpha-V/beta-3 (Homo sapiens, UniProt P05106+P06756); test: Inhibition of human integrin alphav beta3 receptor by biotinylated vitronectin competitive binding assay
Kindly supply the reported IC50 values for the records listed here.
One number for each entry, in nM.

Below are 4 compounds. Give each one its IC50.
1. Cc1cccc(NCCCCOc2ccc(C[C@H](NS(=O)(=O)c3cccc(C(F)(F)F)c3)C(=O)O)cc2N)n1
2. Cc1ccnc(NCCCCOc2ccc(C[C@H](NS(=O)(=O)c3cccc(C(F)(F)F)c3)C(=O)O)cc2NC(=O)COCCOCCOCCOCCOCCOCCN)c1
3. Cc1ccnc(NCCCCOc2ccc(C[C@H](NS(=O)(=O)c3cccc(C(F)(F)F)c3)C(=O)O)cc2NC(=O)COCCOCCOCCN)c1
4. Nc1cc(C[C@H](NS(=O)(=O)c2cccc(C(F)(F)F)c2)C(=O)O)ccc1OCCCNc1ccccn1

**Result**
1: 1.7; 2: 0.8; 3: 0.9; 4: 1.2
